Sourced from the FLAb antibody collection

# protocolDescription: patients with anti-drug antibodies; higher = more immunogenic
List of patients with anti-drug antibodies values.
assayMetric: patients with anti-drug antibodies (%)

protein | unitsSymbol | measuredNumber
unnamed (protein) chain 1: EVTLRESGPGLVKPTQTLTLTCTLYGFSLSTSDMGVDWIRQPPGKGLEWLAHIWWDDVKRYNPALKSRLTISKDTSKNQVVLKLTSVDPVDTATYYCARTVSSGYIYYAMDYWGQGTLVTVSS chain 2: DIQMTQSPSSLSASVGDRVTISCRASQDIRNYLNWYQQKPGKAPKLLIFYTSKLHSGVPSRFSGSGSGTDYTLTISSLQPEDIATYYCQQGNTLPLTFGGGTKVEIK | % | 3
unnamed (protein) chain 1: EVQLVQSGAEVKKPGASVKVSCKASGYTLTSYGISWVRQAPGQGLEWMGWVSFYNGNTNYAQKLQGRGTMTTDPSTSTAYMELRSLRSDDTAVYYCARGYGMDVWGQGTTVTVSS chain 2: ESALTQPASVSGSPGQSITISCTGTSSDVGGYNSVSWYQQHPGKAPKLMIYEVSNRPSGVSNRFSGSKSGNTASLTISGLQAEDEADYYCNSYTSTSMVFGGGTKLTVL | % | 0.3
unnamed (protein) chain 1: EVQLVQSGAEVKKPGESLRISCKGSGYSFSTYWISWVRQMPGKGLEWMGKIYPGDSYTNYSPSFQGQVTISADKSISTAYLQWSSLKASDTAMYYCARGYGIFDYWGQGTLVTVSS chain 2: SYELTQPPSVSVSPGQTASITCSGDNIGDQYAHWYQQKPGQSPVLVIYQDKNRPSGIPERFSGSNSGNTATLTISGTQAMDEADYYCATYTGFGSLAVFGGGTKLTVL | % | 40.7
